Would you mind telling me the reported Percent Effect of each entry?
# Tested on: Chromo domain-containing protein 1 (Saccharomyces cerevisiae (strain ATCC 204508 / S288c) (Baker's yeast))
# Protocol description: ScCHD-1 Enzyme Inhibition Assay; further: in the data most compounds retested in dose-response had high values
# Format: functional
# Design: scale not given: direction of the effect not stated beside the values
# Test conditions: 30 µM
Give bare numbers, in %.

Molecule	Percent Effect (%)
Cc1cccc(N2CCC(NC(=O)CCCc3cccs3)CC2)n1	2.88
COCc1cccc(CNC(=O)CN2CCCC2c2noc(C)n2)c1 (stereo not given)	-13
Cc1noc(C(C)N2CCN(CCCN3CCCC3=O)CC2)n1 (stereo not given)	-15.8
CN(C)C(=O)C1CN(Cc2cscn2)CCN(S(C)(=O)=O)C1 (stereo not given)	-22.4

Now look at this one.
Task item: Let me know recorded Percent Effect for O=C1C[C@H]2[C@@H](CCN2C(=O)c2ccccc2)N1CCN1CCOCC1 , thanks.
Reply: -3.6

----------
I'd be grateful if you could share measured Percent Effect for these entries.
# Tested on: AMP-activated protein kinase, AMPK (Homo sapiens) (UniProt P54646+O43741+P54619+Q9UGJ0+Q9Y478+Q13131+Q9UGI9)
# Protocol description: AMP-dependent Kinase enzyme assay. An in vitro enzyme assay that detects ADP turnover that is directly proportional to AMPK activity. This uses naive AMPK that is activated during the assay with MK-8722
# Format: functional
# Set-up: scale not given: direction of the effect not stated beside the values
# Test conditions: 30 µM
Answers are plain numbers, in %.

Compound	Readout unit	Measured number
CN1CCN(c2nc(O)c3c(-c4ccccn4)ccnc3n2)CC1	%	6.93
COc1cccc2c1OCC(CNC(=O)CCCN1CCOCC1)C2 (centres undefined)	%	-7.92
O=C([C@@H]1CC[C@@H]2[C@@H](CCN2Cc2ccoc2)O1)N1CCCC1	%	-5.44
CC(NC(=O)NCCCn1ccnc1)c1ccc2c(c1)CCC(=O)N2 (centres undefined)	%	0.7
CCC(=O)N1CCc2[nH]cnc2C12CCN(C(=O)c1snnc1C)CC2	%	-6.44
Cc1ccc(NC2CCN(C(=O)COc3cccnc3)CC2)nn1	%	-3.6
CCc1n[nH]c(C2CN(CCc3ccncc3)CCO2)n1 (centres undefined)	%	7.99
CNS(=O)(=O)c1cccc(CNc2cc(C(F)(F)F)ccn2)c1	%	12.6
CNCC(=O)N1CCCC(c2nccnc2Oc2cccc(F)c2)C1 (centres undefined)	%	10
Cc1nc(CNC(=O)NCC(O)c2ccc(F)c(F)c2)cs1 (centres undefined)	%	1.17

Lab note: each compound below needs its Percent Effect filled in.
1. Cc1noc([C@H]2C[C@@H]3CCN(CC4CC4)C[C@H]3O2)n1
2. NC(=O)C1CN(C(=O)Nc2cc(Cl)cc(Cl)c2)CCO1 (centres undefined)
3. Cc1cnn(CC2CCCCN2CC(=O)NCc2ccccn2)c1 (centres undefined)
4. Cc1ccc([C@@H]2CN(S(=O)(=O)C(C)C)C[C@H]2N(C)C)cc1

Reply:
1: 4.66; 2: 0.0499; 3: 6.62; 4: -2.84

----------
# Tested on: Arginase-2, mitochondrial (Homo sapiens)
# Sequence (whole entry): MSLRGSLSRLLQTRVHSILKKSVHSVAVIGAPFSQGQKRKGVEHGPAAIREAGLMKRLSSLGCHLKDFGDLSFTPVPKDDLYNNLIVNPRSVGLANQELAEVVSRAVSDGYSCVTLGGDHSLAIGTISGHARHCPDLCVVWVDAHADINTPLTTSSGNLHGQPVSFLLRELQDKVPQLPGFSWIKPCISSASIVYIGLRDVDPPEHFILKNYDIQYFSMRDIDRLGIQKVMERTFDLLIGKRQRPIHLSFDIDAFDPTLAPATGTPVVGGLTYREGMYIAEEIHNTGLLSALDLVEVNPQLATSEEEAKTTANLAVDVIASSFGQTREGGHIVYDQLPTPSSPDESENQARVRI
# Protocol description: in vitro enzyme assay to detect the production of urea directly proportional to the activity of Arginase II; further: in the data most compounds retested in dose-response had high values
# Assay type: functional
# Parameters: scale not given: direction of the effect not stated beside the values
# Test conditions: 33.3 µM
// assign class 1 if Percent Effect falls strictly below -10%, else class 0 (ties count as class 0)

Structure smiles	Discrete label
CN(Cc1ccccn1)C1CC2(CCN(Cc3cccnc3)CC2)C1	class 0

Task item: Could you please tell me whether Percent Effect recorded for Fc1ccc(CN2CCC(c3n[nH]c4nccnc34)CC2)cc1F is less than -10%?
Reply: class 0

Task item: Check if Percent Effect falls below -10% for O=C(O)C1(Cc2cccc(-c3ccc(F)c(F)c3)c2)CCOCC1 .
Reply: class 0

Task item: State whether -10% exceeds Percent Effect recorded for CCn1cnnc1C1CCN(C(=O)c2cnc3ccccc3n2)CC1 .
Reply: class 1

Task item: Dear reviewer, please state whether CC(C)(C)OC(=O)N1CCCc2ccc(NCc3ncc[nH]3)cc21 has Percent Effect strictly beneath -10%.
Reply: class 1

----------
# Tested on: Sialic acid-binding Ig-like lectin 9 (Homo sapiens) (UniProt Q9Y336)
# Sequence (Q9Y336 whole entry): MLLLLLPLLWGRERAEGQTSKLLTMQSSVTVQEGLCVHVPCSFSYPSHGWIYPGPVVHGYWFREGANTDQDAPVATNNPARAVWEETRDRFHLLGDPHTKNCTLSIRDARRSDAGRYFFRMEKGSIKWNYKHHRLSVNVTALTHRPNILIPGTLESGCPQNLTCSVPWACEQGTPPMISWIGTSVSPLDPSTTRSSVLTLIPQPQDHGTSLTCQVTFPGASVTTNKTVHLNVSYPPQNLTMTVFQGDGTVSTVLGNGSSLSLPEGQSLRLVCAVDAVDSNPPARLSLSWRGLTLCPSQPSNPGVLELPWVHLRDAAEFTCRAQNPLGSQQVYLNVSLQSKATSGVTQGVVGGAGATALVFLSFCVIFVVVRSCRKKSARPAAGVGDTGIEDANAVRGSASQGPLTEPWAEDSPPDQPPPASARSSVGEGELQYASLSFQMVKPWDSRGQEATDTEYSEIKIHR
# Protocol description: Hs-Siglec9 ALPHAscreen SOP 20170721
# Set-up: scale not given: direction of the effect not stated beside the values
# Test conditions: 10 µM
Value type: Percent Effect (%)
Numbers only, in %.

Consider the following illustrative entries.
Molecule	Readout unit	Measured number
O=C(CCc1cc2n(n1)CCCN(C(=O)c1cccnc1)C2)NC1CC1	%	-4.93
Cc1c(C(=O)N2CCCC2c2cnn(C)c2)nnn1-c1ccccc1 (centres undefined)	%	15.4
CC(C)C(=O)NCc1cccc(N2CCCCC2=O)c1	%	-10.4
Cc1nnc2n1CCN(C(=O)c1cc(C)n(-c3ccccn3)c1C)C2	%	3.77

Please go through the list and note Percent Effect for each molecule.
1. N#Cc1ccc(CN2CCN(C(=O)C3CCC3)[C@@H]3CS(=O)(=O)C[C@@H]32)cc1
2. Cc1cc(-c2cnc(N3CCCC(C)C3)nc2-c2cccnc2C)on1 (centres undefined)

Reply:
3.04
-5.16

----------
# Species: Homo sapiens
# Protocol description: To identify inhibition of the IFN signalling (Jak-Stat) pathway via expression of an eGFP reporter gene under the control of an IFN-stimulated response element (ISRE) containing MxA promoter.
# Format: functional
# Parameters: scale not given: direction of the effect not stated beside the values
# Test conditions: 30 µM
Value type: Percent Effect (%)
Answers are plain numbers, in %.

Compound	Percent Effect (%)
Cc1nc(N2CCN(C(=O)c3ccsc3)CC2)c2cnn(C)c2n1	5.31
CCOc1cc(C)nc(N2CCN(C(=O)c3ccc[nH]3)CC2)n1	22.2
CNS(=O)(=O)c1ccc(C(=O)NC2CCOc3ccccc32)o1 (configuration not stated)	17.5

Dear colleague, could you please provide Percent Effect for the compounds listed below?
1. COCCNC(=O)[C@H]1CN(Cc2scnc2C)C[C@H]2OCC[C@@H]12
2. O=C(Cc1ccc2c(c1)OCO2)N1CCN(c2cnccn2)CC1
3. CC(O)CN1CCN(Cc2csc(-c3ncccn3)n2)CC1 (configuration not stated)
4. O=C(Cn1ccnc1)N1C[C@@H]2CC[C@H](Oc3ccccc3Cl)[C@@H]2C1
5. CC1(C)CC(N2Cc3nc(N)ncc3C2=O)CC(C)(C)N1
6. Cc1cc(C(=O)N2C[C@@H]3[C@@H](C2)OCC(=O)N3CC2CC2)no1

Reply:
[4.51, 2.58, 16.8, 31.6, 11, 6.95]

# per-item lookup of Percent Effect; items listed below
1. O=C(CCc1cccs1)N1CCC(N2CCNC2=O)CC1
2. O=C(NCCN1CCCc2ccccc21)c1scnc1Cl
3. CCOc1cc(/C=C/c2ncc(C(=O)O)s2)ccc1O
4. CS(=O)(=O)NCCCNC(=O)c1cccnc1O

Reply:
-5.88
-9.38
7.54
6.15

For every item in the list below, what is its measured Percent Effect?
1. CN1CCCC1CNC(=O)CCCOc1ccc(F)cc1 (configuration not stated)
2. CN(C)C(=O)CN1CCCC2(CCN(c3ccsc3)C2=O)C1 (configuration not stated)
3. c1ccc(-c2cnc(CN3CCCC3Cn3cncn3)o2)cc1 (configuration not stated)
4. COCCC(=O)N1CCc2cc(Cl)cc(Cl)c2C1
5. CCOc1cccc(C(=O)N2CCN(c3nccc(OC)n3)CC2)c1
6. COCC1CCCN(C(=O)c2cc(Cn3ccc4ccccc43)[nH]n2)C1 (configuration not stated)
7. COc1ccccc1OCC(=O)NCC(O)(c1ccccc1)C1CC1 (configuration not stated)

Reply:
[-4.13, 14.6, 10.6, -16.1, 16.4, -41.3, 7.48]

----------
# Organism: Homo sapiens
# Protocol description: To identify inhibition of the IFN signalling (Jak-Stat) pathway via expression of an eGFP reporter gene under the control of an IFN-stimulated response element (ISRE) containing MxA promoter.
# Format: functional
# Parameters: scale not given: direction of the effect not stated beside the values
# Test conditions: 30 µM
Value type: Percent Effect (%)
Answers are plain numbers, in %.

Here's what some known entries look like.
Compound	Readout unit	Measured number
O=C(CSc1ccccc1Cl)NS(=O)(=O)c1ccc2c(c1)OCCO2	%	4.4
O=C(Cc1ccc2c(c1)OCCO2)NC1CCCC1	%	32.2
Cc1ccc2c(n1)N(CCN(C)C)CCN(C(=O)c1ccc[nH]1)C2	%	-6.38
CS(=O)(=O)N1CCOC2(CCCN(c3cnccn3)C2)C1 (stereo not drawn)	%	1.81
O=C(O)C1(Cc2cc(-c3ccc(F)cc3F)no2)CCOCC1	%	6.33

Report Percent Effect for each item below.
1. CSC(C)C(=O)N1CCCN(Cc2cscn2)CC1 (stereo not drawn)
2. COc1ccccc1Oc1ncccc1CNC(=O)C(C)N1CCCC1 (stereo not drawn)
3. Cc1n[nH]cc1CNc1ccc2c(c1)CN(C(=O)OC(C)(C)C)CC2
4. O=C(c1cccnc1-n1cncn1)N1CCN(CC2CC2)CC1
5. Cc1cccc(NS(=O)(=O)c2cc(C(=O)O)oc2C)c1Cl

Reply:
[9.75, -6.43, 68.8, 1.6, 3.85]

# batch: return Percent Effect for each of the 5 compounds below
1. O=C(NCc1nnc2ccccn12)N1CCc2sccc2C1
2. CCc1csc(C2CCCN(C(=O)c3ccc(OC)nn3)C2)n1 (stereo not drawn)
3. O=C(NCc1ccco1)[C@@H]1CCO[C@@H]2CCN(c3ccncn3)C[C@H]21
4. COc1ccccc1NC(=O)NCC(O)(c1ccccc1)C1CC1 (stereo not drawn)
5. CC(C)N1CCC(Cc2cncc(-c3ccccc3C(=O)O)n2)CC1

Reply:
11.1
14.5
3.81
7.23
13.7
